System: TATA box-selected zinc finger protein (Zif268 variant, boxed clone FIG. 3A) (artificial)
Experiment: EMSA
Measurement Setup: same buffer, 5 mM MgCl2, 20 uM ZnSO4, pH 7.9
Value Kind: Kd (nM)
One number for each entry, in nM.

Query: If you can, please state the reported Kd value of AGGGGGGCTATAAAAGGGGGT (double strand) [TATA box site] .
Result: 0.12
